target: Prothrombin (Bos taurus, UniProt P00735)
pKi: −log10 of the molar value.
Hi, to clarify the labels: yes covers pKi from 7 upward, no covers anything below 7.

Solved entries (count: 2):
[
  {
    "smiles-input": "CNC(=O)CCCC1CCN(C(=O)[C@H](Cc2cccc(C(=N)N)c2)NS(=O)(=O)c2cccc(-c3ccc(OC)cc3OC)c2)CC1",
    "qualitative-label": "yes"
  },
  {
    "smiles-input": "CNC(=O)CCCC1CCN(C(=O)[C@H](Cc2cccc(C(=N)N)c2)NS(=O)(=O)c2cccc(-c3cccc(Cl)c3Cl)c2)CC1",
    "qualitative-label": "yes"
  }
]

(Q) Tell me whether pKi is at least 7 here: CNC(=O)NCCC1CCN(C(=O)[C@H](Cc2cccc(C(=N)N)c2)NS(=O)(=O)c2cccc(NC(=O)CCN)c2)CC1
(A) yes

(Q) Do the same for CNC(=O)NCCC1CCN(C(=O)[C@H](Cc2cccc(C(=N)N)c2)NS(=O)(=O)c2cccc(-c3ccc(Cl)cc3Cl)c2)CC1 please
(A) yes

(Q) Do the same for N=C(N)c1cccc(C[C@H](NS(=O)(=O)c2cccc(NC(=O)CCN)c2)C(=O)N2CCC(NC(=O)NC3CCCCC3)CC2)c1 please
(A) no

(Q) Do the same for CNC(=O)CCCC1CCN(C(=O)[C@H](Cc2cccc(C(=N)N)c2)NS(=O)(=O)c2cccc(-c3ccc(F)cc3)c2)CC1 please
(A) yes

(Q) Do the same for CNC(=O)CCCC1CCN(C(=O)[C@H](Cc2cccc(C(=N)N)c2)NS(=O)(=O)c2cccc(-c3cccc(F)c3)c2)CC1 please
(A) yes

(Q) Do the same for COc1ccc(-c2cccc(S(=O)(=O)N[C@@H](Cc3cccc(C(=N)N)c3)C(=O)N3CCC(NC(=O)NC4CCCCC4)CC3)c2)c(OC)c1 please
(A) no

###

Recorded Ki values (Coagulation factor X (Homo sapiens)) are given below.
Number in nM, nothing else.

Here's what some known entries look like.
[
  {
    "smiles-input": "CCNC(=O)NCCC1CCN(C(=O)[C@H](Cc2cccc(C(=N)N)c2)NS(=O)(=O)c2cccc(NC(=O)CCN)c2)CC1",
    "system-under-test": "Coagulation factor X (Homo sapiens)",
    "result-type": "Ki",
    "readout-value": 4790
  },
  {
    "smiles-input": "CNC(=O)CCCC1CCN(C(=O)[C@H](Cc2cccc(C(=N)N)c2)NS(=O)(=O)c2cccc(-c3ccc(F)cc3)c2)CC1",
    "system-under-test": "Coagulation factor X (Homo sapiens)",
    "result-type": "Ki",
    "readout-value": 550
  },
  {
    "smiles-input": "N=C(N)c1cccc(C[C@H](NS(=O)(=O)c2cccc(-c3ccc(F)cc3)c2)C(=O)N2CCC(CCN)CC2)c1",
    "system-under-test": "Coagulation factor X (Homo sapiens)",
    "result-type": "Ki",
    "readout-value": 1120
  }
]

Read the next record carefully.
(Q) Return reported Ki; argument: COc1ccc(-c2cccc(S(=O)(=O)N[C@@H](Cc3cccc(C(=N)N)c3)C(=O)N3CCC(CCN)CC3)c2)c(OC)c1
(A) 110

###

target: Transmembrane protease serine 6 (Homo sapiens, UniProt Q8IU80)
Sequence (Q8IU80 whole entry): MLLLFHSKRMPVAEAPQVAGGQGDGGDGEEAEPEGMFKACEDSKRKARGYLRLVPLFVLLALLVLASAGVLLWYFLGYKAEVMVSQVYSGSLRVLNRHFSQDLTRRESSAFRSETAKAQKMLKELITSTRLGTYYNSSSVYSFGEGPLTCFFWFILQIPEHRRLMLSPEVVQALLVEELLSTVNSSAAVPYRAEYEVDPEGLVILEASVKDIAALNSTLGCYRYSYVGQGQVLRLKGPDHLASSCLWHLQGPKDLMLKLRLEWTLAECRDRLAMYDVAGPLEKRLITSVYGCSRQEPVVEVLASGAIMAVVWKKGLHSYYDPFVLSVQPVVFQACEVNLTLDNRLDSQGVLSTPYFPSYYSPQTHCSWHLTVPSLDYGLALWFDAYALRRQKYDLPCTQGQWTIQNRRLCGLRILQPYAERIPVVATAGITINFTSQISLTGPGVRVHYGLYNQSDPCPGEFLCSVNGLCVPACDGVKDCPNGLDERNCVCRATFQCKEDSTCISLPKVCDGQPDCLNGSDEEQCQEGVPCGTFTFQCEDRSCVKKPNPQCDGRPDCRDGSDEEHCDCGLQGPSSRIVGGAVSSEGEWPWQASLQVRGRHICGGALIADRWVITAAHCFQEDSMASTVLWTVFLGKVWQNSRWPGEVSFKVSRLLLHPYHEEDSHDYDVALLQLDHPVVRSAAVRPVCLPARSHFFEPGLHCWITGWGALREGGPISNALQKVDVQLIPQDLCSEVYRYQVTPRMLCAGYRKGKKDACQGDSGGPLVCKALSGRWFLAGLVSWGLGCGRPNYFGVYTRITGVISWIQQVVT
Collected pKi values appear next to each entry.
Reminder that pKi means the negative base-10 logarithm of the concentration expressed in mol/L.

Here's what some known entries look like.
[
  {
    "smiles-input": "N=C(N)c1cccc(C[C@H](NS(=O)(=O)c2cccc(-c3ccc(Cl)cc3Cl)c2)C(=O)N2CCC(CCN)CC2)c1",
    "result-type": "pKi",
    "readout-value": 6.96
  },
  {
    "smiles-input": "N=C(N)c1cccc(C[C@H](NS(=O)(=O)c2cccc(-c3cccc(F)c3)c2)C(=O)N2CCC(CCN)CC2)c1",
    "result-type": "pKi",
    "readout-value": 5.49
  },
  {
    "smiles-input": "N=C(N)c1cccc(C[C@H](NS(=O)(=O)c2cccc(-c3ccc(Cl)cc3Cl)c2)C(=O)N2CCC(NC(=O)NC3CCCCC3)CC2)c1",
    "result-type": "pKi",
    "readout-value": 6.03
  }
]

(Q) # get_value(readout= pKi, system= Transmembrane protease serine 6 (Homo sapiens, UniProt Q8IU80)) for N=C(N)c1cccc(C[C@H](NS(=O)(=O)c2cccc(-c3ccc(F)cc3)c2)C(=O)N2CCC(CCN)CC2)c1
(A) 5.49
